Reported TGI values are given for each entry in this list.
Tested on: HCC-2998 colon
experiment.description: NCI tumour cell line growth inhibition, 48 h

In [3]: df
Out[3]:
                            chemical_string  observable    result
0      c1ccc2[nH]c(SSc3nc4ncncc4[nH]3)nc2c1         TGI  > 100 µM
1       COc1ccc2c([nH]c3cc(O)c(C)cc32)c1C=O         TGI   > 25 µM
2  O=S(=O)(O)c1ccc2c(N=Nc3ccccc3)c(O)c(S(=O)(=O)O)cc2c1         TGI  > 100 µM
3  O=C(O)c1c2c(c(C(=O)O)c3ccccc13)-c1ccccc1-2         TGI  > 100 µM
4  COc1ccc(-c2cc(C3CC3)nc(SCC(=O)O)c2C#N)cc1         TGI  > 100 µM

# molecule O=C1C=C(N2CCCC2)C(=O)c2c(O)ccc(O)c21 ; its TGI = > 10 µM

# molecule O=C1CCCCCCCCCCC(=O)C2CCOCCOCCOCCC1Cc1cccc(n1)C2 ; its TGI = > 100 µM

# molecule O=C1C(Cl)=C(Oc2ccc([N+](=O)[O-])cc2)C(=O)c2c(O)ccc(O)c21 ; its TGI = > 100 µM
